Just for reference, PubChem BioAssay AID651548 is where these values come from.

Listing: inhibition of selected molecules
- study target: Histone-lysine N-methyltransferase EZH2 (Homo sapiens) (UniProt Q15910)
- Sequence (Q15910 whole entry, looked up): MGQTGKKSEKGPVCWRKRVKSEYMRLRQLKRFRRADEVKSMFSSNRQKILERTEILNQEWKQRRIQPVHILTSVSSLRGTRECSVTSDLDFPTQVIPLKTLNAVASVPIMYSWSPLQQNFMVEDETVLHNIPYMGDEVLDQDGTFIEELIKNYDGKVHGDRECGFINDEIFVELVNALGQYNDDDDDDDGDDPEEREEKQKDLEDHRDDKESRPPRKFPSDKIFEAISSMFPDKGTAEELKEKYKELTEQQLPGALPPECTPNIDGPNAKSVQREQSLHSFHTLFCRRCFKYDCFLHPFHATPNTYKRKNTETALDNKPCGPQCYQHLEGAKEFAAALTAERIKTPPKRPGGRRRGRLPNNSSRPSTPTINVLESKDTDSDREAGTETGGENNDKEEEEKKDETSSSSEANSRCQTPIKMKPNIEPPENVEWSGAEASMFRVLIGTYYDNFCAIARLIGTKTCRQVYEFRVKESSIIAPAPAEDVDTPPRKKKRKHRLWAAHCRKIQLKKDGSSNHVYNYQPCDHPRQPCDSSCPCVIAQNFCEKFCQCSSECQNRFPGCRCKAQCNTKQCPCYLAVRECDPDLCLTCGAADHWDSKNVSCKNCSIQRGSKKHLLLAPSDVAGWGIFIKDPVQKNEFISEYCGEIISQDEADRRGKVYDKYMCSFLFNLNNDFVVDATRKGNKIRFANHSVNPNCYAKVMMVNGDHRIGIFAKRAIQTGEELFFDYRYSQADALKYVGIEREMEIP
- protocol details: inhibition of PRC2 H3K27 methylation – biochemical, DELFIA time-resolved fluorescence, single point, primary screen (AID 651548);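 also: dimethyl H3K27 on biotinylated H3 21-44 peptide detected by antibody; plate controls were median neutral control wells for no effect and median positive control wells for full effect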
- particulars: DELFIA TRF, 1 h, at 12.5 µM, hits give high values
Out of some 57,000 compounds screened, about 200 (0.35%) were called active. The full list was thinned out, with actives kept by preference.
Numbers only; they are read as %.

// worked examples, inhibition included
compound=C[C@@H]1CN([C@H](C)CO)S(=O)(=O)c2ccc(C#Cc3ccccc3F)cc2O[C@@H]1CN(C)C(=O)c1ccc2c(c1)OCO2 endpoint_unit=% recorded_measurement=-7.72
compound=CCC(=O)Nc1ccc2c(c1)OC[C@@H](C)N(Cc1cncnc1)C[C@H](C)[C@@H](OC)CN(C)C2=O endpoint_unit=% recorded_measurement=-1.64
compound=CN(C)C(=O)C[C@H]1C[C@@H]2c3cc(NC(=O)NC4CCCCC4)ccc3O[C@@H]2[C@@H](CO)O1 endpoint_unit=% recorded_measurement=9.52
compound=C/C=C/c1ccc2c(c1)O[C@@H](CN(C)C(=O)NC1CCCC1)[C@@H](C)CN([C@H](C)CO)S2(=O)=O endpoint_unit=% recorded_measurement=10.7
compound=CC(C)NC(=O)N[C@@H]1CC[C@H](CC(=O)NC2Cc3ccccc3C2)O[C@H]1CO endpoint_unit=% recorded_measurement=-19.2

Let us move to another entry and its inhibition.
Task: Which value of inhibition has been reported for "O=C(C[C@H]1C=C[C@H](NC(=O)Nc2ccc(C(F)(F)F)cc2)[C@@H](CO)O1)NCCN1CCCC1" in the records?
Result: 11.8

----------
- study target: Histone-lysine N-methyltransferase EZH2 (Homo sapiens) (UniProt Q15910)
- protocol details: inhibition of PRC2 H3K27 methylation – biochemical, DELFIA time-resolved fluorescence, single point, primary screen (AID 651548);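 also: dimethyl H3K27 on biotinylated H3 21-44 peptide detected by antibody; plate controls were median neutral control wells for no effect and median positive control wells for full effect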
- particulars: DELFIA TRF, 1 h, at 12.5 µM, hits give high values
In all, about 57,000 compounds went through this assay and about 200 (0.35%) were called active. Only a selection was taken, and actives are over-represented in it overall.
Listing: inhibition of selected molecules
Numbers only; they are read as %.

// worked examples, inhibition included
compound=C[C@@H]1CN([C@H](C)CO)S(=O)(=O)c2ccc(-c3ccccc3)cc2O[C@@H]1CN(C)C(=O)C1CC1 endpoint_label=inhibition endpoint_unit=% recorded_measurement=7.84
compound=COCCNC(=O)C[C@H]1CC[C@H](NS(=O)(=O)c2ccc(C)cc2)[C@@H](CO)O1 endpoint_label=inhibition endpoint_unit=% recorded_measurement=-9.8

Task: Which value of inhibition has been reported for "CO[C@@H]1CN(C)C(=O)c2cc(NC(=O)C3CC3)ccc2OC[C@H](C)N(C(=O)c2ccccc2F)C[C@H]1C" in the records?
Result: 3.97

Task: Which value of inhibition has been reported for "O=C(Nc1ccccc1F)N[C@@H]1CC[C@H](CCNC(=O)C2CC2)O[C@@H]1CO" in the records?
Result: -5.22

Task: Which value of inhibition has been reported for "CO[C@@H]1CN(C)C(=O)c2cc(NC(C)=O)ccc2OC[C@@H](C)N(C(=O)NC2CCCCC2)C[C@H]1C" in the records?
Result: 3.91

Task: Which value of inhibition has been reported for "CO[C@H]1CN(C)C(=O)c2cc(NC(=O)C3CCCC3)ccc2OC[C@@H](C)N(C(=O)CC2CC2)C[C@@H]1C" in the records?
Result: 4.88

Task: Which value of inhibition has been reported for "COc1cccc(S(=O)(=O)N[C@@H]2C=C[C@H](CC(=O)NC3CCC3)O[C@H]2CO)c1" in the records?
Result: 4.61

Task: Which value of inhibition has been reported for "O=C(N[C@@H]1CC[C@@H](CC(=O)N2CCc3ccccc3C2)O[C@@H]1CO)C1CCOCC1" in the records?
Result: -3.58

Task: Which value of inhibition has been reported for "C[C@@H](NC(=O)C[C@@H]1CC[C@H](NC(=O)Cc2ccccn2)[C@H](CO)O1)c1ccccc1" in the records?
Result: 5.38

Task: Which value of inhibition has been reported for "CO[C@@H]1CN(C)C(=O)c2cc(NC(=O)c3cnccn3)ccc2OC[C@@H](C)N(C(=O)C2CC2)C[C@@H]1C" in the records?
Result: 3.91

Task: Which value of inhibition has been reported for "COCC(=O)Nc1ccc2c(c1)OC[C@H](C)N(Cc1ccccc1OC)C[C@@H](C)[C@@H](OC)CN(C)C2=O" in the records?
Result: -9.26

Task: Which value of inhibition has been reported for "CC(C)NC(=O)N(C)C[C@@H]1Oc2cc(C#C[C@H](C)O)ccc2S(=O)(=O)N([C@@H](C)CO)C[C@H]1C" in the records?
Result: 8.88
